System: COLO 480
Test: Tested against human colon carcinoma COLO 480 cell line in vitro
Assay type: functional, cell-based
parameter-measured: pIC50
Give bare numbers, as −log10 of the molar value.

Specify pIC50 for CN(C)CCN1C(=O)c2cccc3cc4ccccc4c(c23)C1=O [AZONAFIDE] and stop.
8.52

----------
Assay: The quotient of the IC50 is the myocytes divided by the mean IC50 in the four cell lines (UACC375,OVCAR3,L1210 sensitive,L1210 resistant)
Type: ADME
Conditions: read-out: Toxicity ratio
parameter-measured: selectivity ratio
Numbers only.

Please go through the list and note selectivity ratio for each compound.
1. CN(C)CCN1C(=O)c2cccc3cc4ccccc4c(c23)C1=O [AZONAFIDE]
2. O=C1c2cccc3cc4ccccc4c(c23)C(=O)N1CCNCCO
3. O=C1c2cccc3cc4ccccc4c(c23)C(=O)N1CCN1CCCC1

56
18
28

Please go through the list and note selectivity ratio for each compound.
1. O=C1c2cccc3cc4ccccc4c(c23)C(=O)N1CCCN(CCO)CCO
2. CN(C)CCN1C(=O)c2cccc3cc(N)cc(c23)C1=O [AMONAFIDE]

1: 60; 2: 36
